# ASSAY_INFO: yeast display, Sf9 membrane polyspecificity reagent, FACS + sequencing; frameworks hold sequencing errors
ASSAY_ENDPOINT: polyreactivity (PSR sort gate)

Look over these answered cases.
SEQUENCE_CODE	polyreactivity (PSR sort gate)
QVQLVESGGGLVQAGGSLRLSCAASGFTIYYYAMGWYRQAPGKERELVASISWRGGSTYYADSVKGRFTISRDNAKNTDYIQINSLKAEDTAVYYCAAQKRGSPGNRRDYWGQGTQVTVSS	high polyreactivity
QVQLVESGGGLVQAGGSLRLSCAASGSTFSSYVMGWDRQAPGKERELVAAISSIGGSTYYADSVKGRFTISRDNAKNTVYLQMNSQKPEDTAVYYCPAEPPGSTYEGGYWGQGTQVTVSS	low polyreactivity
QVQHVESGGGLVHAGGSLRLSCASSGSIFYPYAMGWYRQAQGKERELVAAIRNGGSTYYTDSVKGRFTISRDNAKNTVYLQMNSLKPEDTAVYYCAASVRRRHPFEYWGQGTQVTVSS	high polyreactivity
QVQLVESGGGLVQAGGSLRISCAASGRTFRHYAMGWYIQAPGKEREFVAAISRSGGSTRYADSVKGRFTISRDNAKNSVYLQMNSLKPEDTAVYYCAATSRSYNDYDYWGQGTQVTVSS	high polyreactivity

Next sequence, polyreactivity (PSR sort gate) to be filled in.
Request: State the recorded polyreactivity (PSR sort gate) for this entry: QVQLVESGGGLVQAGGSLRLSCAASGFIFSSNAMGWYRQAPGKEREFVAAISFRGGTTYYADSVKGRFTISRDNAKNTVYLQMKSLKPEDTAVYYCNAVRWRSGRWWWYDYWGQGTQVTVSS
Response: low polyreactivity

----------
# ASSAY_INFO: yeast display, Sf9 membrane polyspecificity reagent, FACS + sequencing; frameworks hold sequencing errors
ASSAY_ENDPOINT: polyreactivity (PSR sort gate)

Look over these answered cases.
SEQUENCE_CODE	polyreactivity (PSR sort gate)
QVQLVESGGGLVQAGGSLRLSCAASGSTFPFYDMGWYRQAPGKERELVTAIRSGGSTYADSVKGRFTISRDNAKNTVYLQMNSLKPVDTAVYYCAKRCPSIRYSRYRVKYDYWGQGTQVTVSS	low polyreactivity
QVQVESGGGLVQAGGSLRLSCGASGSIIDQYVMGWYRQAPGKERELVAAISRGGRTYYADSVKGRFTISRDNAKNTVYLQMNSLNPEDTAVYYCATGYGPYLGRPHLTLYYYWGQGTQVTVSS	low polyreactivity
QVQLVESGGGLVQAGGSLRLSCAASGRIFVGYAMGWYRQAPGKERELVAAINRSGSSTYYADSVKGRFTISRDNAKNTVYLQMNSLKPEDSAVYYCNARAPSYYRYRASSAYDYWGQGTQVTVSS	high polyreactivity
QVQLVESGGGLVQAGGSLRLSCAASGSIVYYYAMGWYRQAPGKERELVAAITRSGGSTYYADSVKGRFTISRDNAKNTVYLQMNSLKPEDTSVYYCAKDAHAYRDLDYWGQGTQVTVSS	low polyreactivity

Request: State the recorded polyreactivity (PSR sort gate) for this entry: QVQLVESGGGLVQAGGSLRLSCAASGFTFPSYAMGWYRQAPGKDREFVAGITKGGGNTYYADSVKGRFTISRDNAKNNVYLQMNSLKPEDTAVYYCAKCPLPRAGVKFDYWGQGTQVTVSS
Response: low polyreactivity

----------
# ASSAY_INFO: yeast display, Sf9 membrane polyspecificity reagent, FACS + sequencing; frameworks hold sequencing errors
ASSAY_ENDPOINT: polyreactivity (PSR sort gate)

Look over these answered cases.
SEQUENCE_CODE	polyreactivity (PSR sort gate)
QVQLVESGGGLVQAGGSLRLSCAASGFTFGGYARGWSRQAPRTERELVAAISSSAGRTYYADSVKGRFTISRDNAKNTVYVQMNRLKPEDTAVYYCNTGGVYGPRRYYYWGQGTQVTVSS	high polyreactivity
QVQLVESAAVLVQAGGRLRLSCADSGRIFTDNGMGWYRQAPGKERELVAAISESGGSTYYADSVKGRFTISRDNAKNTVYLQMNSLKPEDTAVYYCAADLYWYGYHYDYWGQGTQVTVSS	low polyreactivity
QVQLVESGGGLVQAGGSLRISCAASGTNNRTYAMGWYRQSTGKERDLVAAISKRGGSTYYADSVKGRFTISRDKAKNTVYLQMNSLKPEDTEVYYCAKKSTPGYGTSNDSWVQGTQVTVSS	high polyreactivity
QVQLVESGGGLVQAGGSLRLSCAASGSTFGTNVMGWYRQAPGKERELVAAISRRGSSTYYADSVKGRFTISRDNAKNTVYLQMNSLKPEDTAVYYCAARVYPSAAMDSWGQGTQVTVSS	high polyreactivity

Next sequence, polyreactivity (PSR sort gate) to be filled in.
Request: State the recorded polyreactivity (PSR sort gate) for this entry: QVQQHESGGGLVQAGGSLRLTCAASGTISESGLMGWYRQAPGKERELVAGISSGGITNYADSVKGRFTISRDIAINTVYLQMNSPKPEDTAEYWGQGSQVTVSS
Response: low polyreactivity

meta.source: the nanobody polyreactivity screen of Harvey et al. (2022)
